Experiment: Ocular tissue distribution and pharmacokinetics, 15 mg/kg BID oral, nonpigmented New Zealand White rabbits (Example 7)
Assay type: in vivo
Conditions: New Zealand White, rabbit, plasma, oral; NZW rabbits, Day 15, 15 mg/kg BID, 6 hr; read-out: Mean Plasma Concentration
measurement-kind: concentration at 6 h (ng/mL)
Respond with the bare value in ng/mL.

Annotate the compound "CC(=O)c1nn(CC(=O)N2C[C@H](F)C[C@H]2C(=O)Nc2cccc(Br)n2)c2ccc(-c3cnc(C)nc3)cc12" with its measured concentration at 6 h. 179

---

Test: Ocular tissue and plasma pharmacokinetics, 15 mg/kg single and BID oral, Dutch Belted rabbits (Example 3/5)
Format: in vivo
Conditions: Dutch Belted, rabbit, plasma, po, 15 mg/kg, DB rabbit, 15 mg/kg BID oral, Day 15, 96 h; read-out: Mean plasma concentration
measurement-kind: concentration at 96 h (ng/mL)
Respond with the bare value in ng/mL.

Annotate the molecule "CC(=O)c1nn(CC(=O)N2C[C@H](F)C[C@H]2C(=O)Nc2cccc(Br)n2)c2ccc(-c3cnc(C)nc3)cc12" with its measured concentration at 96 h. 3.19
